- Tested on: SK-MEL-28 melanoma
- METHOD DESCRIPTION: NCI tumour cell line growth inhibition, 48 h; in the data active = GI50 below about 0.43 µM; inactive = the rest
Labels: active, inactive

# MOLECULE, CAT
rows = [
    ("Cc1ccc2c(c1)ncn2-c1ncnc2c1CC(C)c1ccccc1N2C (stereo not given)", "inactive"),
    ("Nc1nc(OCc2ccccc2)nc2[nH]ncc12", "inactive"),
    ("COc1cc2cc(Oc3ccc(NC(=O)c4ccc(Cl)c(C(F)(F)F)c4)cc3)c(C)nc2cc1OC", "inactive"),
    ("O=C(NN1C(=O)CSC1c1ccc(Cl)cc1)c1[nH]c2ccc(F)cc2c1-c1ccccc1 (stereo not given)", "inactive"),
    ("CC[CH2][Pb]([CH2]CC)([CH2]CC)[NH]S(=O)(=O)c1ccc(C)cc1", "active"),
]

Sourced from PubChem BioAssay (NCI)
